Property Name: melting point

Some compounds with recorded melting point:
Smiles Entry	melting point
O=C(O)c1cccc(-c2nnc(-c3ccc(Br)nc3)o2)c1	274 to 275 °C
O=C(O)c1cccc(-c2cc(-c3ccc(Cl)cc3)no2)c1	265 to 266 °C
CC(C)c1ccc(-c2ccc(-c3cccc(C(=O)O)c3)o2)cc1	172 to 176 °C

Request: // query melting point value for entry CN(C)c1ccc(-c2nnc(-c3cccc(C(=O)O)c3)o2)cn1
Result: 272 to 274 °C

Request: Same read-out for COc1ccccc1-c1cnc(-c2ccc(C(=O)O)cc2)o1 ?
Result: 305 to 306 °C

Request: Same read-out for Cc1cccc(-c2cnc(-c3cccc(C(=O)O)c3)o2)c1 ?
Result: 194 to 195 °C

Request: Same read-out for O=C(O)c1cccc(-c2cc(-c3ccc(F)cc3)on2)c1 ?
Result: 266.5 to 268 °C

Request: Same read-out for CC(C)c1ccc(-c2nnc(-c3cccc(C(=O)O)c3Cl)o2)cc1 ?
Result: 152 to 155 °C

Request: Same read-out for O=C(O)c1cccc(-c2nnc(-c3ccc4[nH]ccc4c3)o2)c1 ?
Result: > 270 °C
